- ASSAY EXPLANATION: Volume of distribution at steady state in mouse
- Type: ADME, organism-based
- CONDITION SUMMARY: in vivo, read-out: Vdss
Give Vd for every item shown.
One number for each entry, in L/kg.

O=C(OC1CN2CCC1CC2)N1CCc2ccccc2[C@@H]1c1ccc(F)cc1 (some centres not stated)    4.91

**Q:** Which Vd is listed for O=C(OCC12CCN(CC1)CC2)N1CCc2ccccc2[C@H]1c1ccc(F)cc1 ?
**A:** 7.23

====

- ASSAY EXPLANATION: Half life in rat hepatocytes
- Assay type: ADME, cell-based, Hepatocyte
MEASURED METRIC: half-life (min)
One number for each entry, in min.

O=C(OCC12CCN(CC1)CC2)N1CCc2ccccc2[C@H]1c1ccc(F)cc1    17

// below: half-life requested for another compound
**Q:** Which half-life is listed for O=C(OC1CN2CCC1CC2)N1CCc2ccccc2[C@@H]1c1ccc(F)cc1 (some centres not stated) ?
**A:** 29

====

Give half-life for every item shown.
- ASSAY EXPLANATION: Half life in iv dosed mouse
- Assay type: ADME, organism-based
- CONDITION SUMMARY: in vivo
Numbers only, in min.

O=C(OCC12CCN(CC1)CC2)N1CCc2ccccc2[C@H]1c1ccc(F)cc1    2.2

// below: half-life requested for another molecule
**Q:** Which half-life is listed for O=C(OC1CN2CCC1CC2)N1CCc2ccccc2[C@@H]1c1ccc(F)cc1 (some centres not stated) ?
**A:** 2.1

====

- ASSAY EXPLANATION: Cmax in rat
- Assay type: ADME
- CONDITION SUMMARY: in vivo
MEASURED METRIC: Cmax

O=C(OC1CN2CCC1CC2)N1CCc2ccccc2[C@@H]1c1ccc(F)cc1 (some centres not stated)    37 nM

**Q:** Which Cmax is listed for O=C(OCC12CCN(CC1)CC2)N1CCc2ccccc2[C@H]1c1ccc(F)cc1 ?
**A:** 17 nM

====

Give fraction unbound for every item shown.
- ASSAY EXPLANATION: Protein binding in human assessed as unbound fraction
- Type: ADME
Give bare numbers.

O=C(OC1CN2CCC1CC2)N1CCc2ccccc2[C@@H]1c1ccc(F)cc1 (some centres not stated)    0.06

// below: fraction unbound requested for another compound
**Q:** Which fraction unbound is listed for O=C(OCC12CCN(CC1)CC2)N1CCc2ccccc2[C@H]1c1ccc(F)cc1 ?
**A:** 0.086

====

- ASSAY EXPLANATION: Half life in po dosed cynomolgus monkey
- Type: ADME, organism-based, Macaca fascicularis
- CONDITION SUMMARY: in vivo
MEASURED METRIC: half-life (min)
Give bare numbers, in min.

**Q:** Which half-life is listed for O=C(OCC12CCN(CC1)CC2)N1CCc2ccccc2[C@H]1c1ccc(F)cc1 ?
**A:** 6.8

====

- ASSAY EXPLANATION: Cmax in cynomolgus monkey
- Type: ADME, Macaca fascicularis
- CONDITION SUMMARY: in vivo
MEASURED METRIC: Cmax
// unit must come after the numeric part

**Q:** Which Cmax is listed for O=C(OCC12CCN(CC1)CC2)N1CCc2ccccc2[C@H]1c1ccc(F)cc1 ?
**A:** 32 nM

====

- ASSAY EXPLANATION: Half life in po dosed rat
- Type: ADME, organism-based
- CONDITION SUMMARY: in vivo
MEASURED METRIC: half-life (min)
Answers are plain numbers, in min.

O=C(OC1CN2CCC1CC2)N1CCc2ccccc2[C@@H]1c1ccc(F)cc1 (some centres not stated)    2.1

// below: half-life requested for another compound
**Q:** Which half-life is listed for O=C(OCC12CCN(CC1)CC2)N1CCc2ccccc2[C@H]1c1ccc(F)cc1 ?
**A:** 5.2

Origin of measurements: ChEMBL document CHEMBL4819154
